Listing of entries alongside the reported %Inh.
test system: PIK3CD; conditions: concentration: 1 μM, replicates: in singlicate; n = 1;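 further: KINOMEscan kinase panel screen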
Parameter: %Inh (%)

{"Compound": "NS(=O)(=O)c1cccc(-c2ccc3ncc(N4CCOCC4)nc3c2)c1", "Experimental target": "PIK3CD", "Parameter": "%Inh", "Assay result": 34}
{"Compound": "COc1cc2c(cc1OC[C@@H](O)CO)ncc1c3ccc(C#N)cc3[nH]c21", "Experimental target": "PIK3CD", "Parameter": "%Inh", "Assay result": 2}
{"Compound": "Cc1c(Cn2c(C)nn3c(=O)cc(N4CCOC(C)C4)nc23)cccc1C(F)(F)F (centres unmarked)", "Experimental target": "PIK3CD", "Parameter": "%Inh", "Assay result": 92.7}
{"Compound": "Cc1nnc(-c2ccc(C)c(-c3ccc(C(=O)Nc4ccc(NS(C)(=O)=O)cc4)cc3)c2)o1", "Experimental target": "PIK3CD", "Parameter": "%Inh", "Assay result": 10}
{"Compound": "COc1cc2ncn(-c3cc(OCc4sccc4Cl)c(C(N)=O)s3)c2cc1OC", "Experimental target": "PIK3CD", "Parameter": "%Inh", "Assay result": 30}

----------
test system: WNK1; settings: concentration: 1 μM, replicates: in singlicate; n = 1

{"Compound": "NS(=O)(=O)c1cccc(-c2ccc3ncc(N4CCOCC4)nc3c2)c1", "%Inh (%)": 0}
{"Compound": "O=C1Cc2cc(Nc3nc(NCc4cccc(S(=O)(=O)C(F)(F)F)c4)ncc3C(F)(F)F)ccc2N1", "%Inh (%)": 0}
{"Compound": "Cl.Nc1ncnc2occ(-c3ccc(NC(=O)Nc4cc(C(F)(F)F)ccc4F)cc3)c12", "%Inh (%)": 4}
{"Compound": "O=C(NCCNc1ccnc(Nc2ccc(F)cc2)n1)c1cc2ccccc2s1", "%Inh (%)": 0}
{"Compound": "COc1ccc(CNC(=O)NC2CCN(c3ccnc(Nc4ccc(OC)cc4)n3)C2)cc1 (stereo not drawn)", "%Inh (%)": 4}
{"Compound": "Fc1ccc(-c2ncn(CCCN3CCOCC3)c2-c2ccccn2)cc1", "%Inh (%)": 0}
{"Compound": "CN(C1=C(c2ccccc2)C(=O)NC1=O)c1ccccc1", "%Inh (%)": 8}
{"Compound": "O=C(Nc1n[nH]c2cc(-c3cccc(F)c3)ccc12)C1CC1", "%Inh (%)": 28}
{"Compound": "Cc1cn2c(=O)cc(N3CCOCC3)nc2n1Cc1cccc(Cl)c1Cl", "%Inh (%)": 0}

----------
Quick reference: %Inh of the listed items.
system: PKAC-alpha; construct: gene PRKACA; details: concentration: 1 μM, replicates: in singlicate; n = 1

{"Compound": "c1ccc(-c2n[nH]cc2-c2ccnc3ccccc23)nc1", "Experimental target": "PKAC-alpha", "%Inh / %": 9}
{"Compound": "O=C(NCCNc1ccnc(Nc2ccc(F)cc2)n1)Nc1ccccc1F", "Experimental target": "PKAC-alpha", "%Inh / %": 8}
{"Compound": "COc1cc(Nc2nccc(N3CCC(NC(=O)c4cccc(NC(C)=O)c4)C3)n2)cc(OC)c1OC (centres unmarked)", "Experimental target": "PKAC-alpha", "%Inh / %": 3}
{"Compound": "Nc1nc(-c2ccc3c(N)n[nH]c3c2)cc(N2CCCC2)n1", "Experimental target": "PKAC-alpha", "%Inh / %": 0}
{"Compound": "O=c1cc(N2CCOCC2)nc2n(Cc3cccc(C(F)(F)F)c3)ccn12", "Experimental target": "PKAC-alpha", "%Inh / %": 0}
{"Compound": "O=C(c1ccc(-c2cc(-c3c[nH]nc3-c3ccccn3)ccn2)cc1)N1CCOCC1", "Experimental target": "PKAC-alpha", "%Inh / %": 0}
{"Compound": "O=C(NOCC1CC1)c1ccc(F)c(F)c1Nc1ccc(I)cc1Cl", "Experimental target": "PKAC-alpha", "%Inh / %": 0}
{"Compound": "Cc1cccc(Cn2ccn3c(=O)cc(N4CCOCC4)nc23)c1", "Experimental target": "PKAC-alpha", "%Inh / %": 16}

----------
test system: MAST1; conditions: concentration: 1 μM, replicates: in singlicate; n = 1
# true (1) = %Inh below 20% (exclusive); false (0) = %Inh at/above 20%

{"Molecule": "[2H]C([2H])(c1cccc(C(F)(F)F)c1C)n1ccn2c(=O)nc(N3CCOCC3)cc12", "Answer label": "true (1)"}
{"Molecule": "CCCCCc1nc2c(N)ncnc2n1CCCCC", "Answer label": "false (0)"}
{"Molecule": "COC(=O)Nc1nc2cc(Oc3ccc(NC(=O)Nc4cc(F)ccc4F)cc3)ccc2[nH]1.Cl", "Answer label": "true (1)"}
{"Molecule": "Cl.Oc1cccc(Nc2ccnc3cc(-c4ccncc4)ccc23)c1", "Answer label": "false (0)"}
{"Molecule": "COc1cc2c(cc1OCCN1CCN(C)CC1)ncc1c3ccc(C#N)cc3[nH]c21", "Answer label": "false (0)"}

----------
tested on: ACVR2A; settings: concentration: 1 μM, replicates: in singlicate; n = 1
Parameter: %Inh (%)

{"Molecule": "NCCNS(=O)(=O)c1ccc(-c2ccnc3[nH]ccc23)cc1 [GSK977617]", "Readout units": "%", "Assay result": 0}
{"Molecule": "Cn1ccc2ncnc(Oc3ccc(NC(=O)Nc4ccncc4)c(Cl)c3)c21", "Readout units": "%", "Assay result": 0}
{"Molecule": "COc1cc2ncn(-c3cc(OCc4sccc4Cl)c(C(N)=O)s3)c2cc1OC [GSK448459]", "Readout units": "%", "Assay result": 0}
{"Molecule": "Cc1ccc(NC(=O)c2ccnc(N3CCN(C)CC3)c2)cc1-c1ccc(C(=O)NCC2CC2)cc1 [GW775604]", "Readout units": "%", "Assay result": 16}
{"Molecule": "O=C(NOCC1CC1)c1ccc(F)c(F)c1Nc1ccc(I)cc1Cl", "Readout units": "%", "Assay result": 0}
{"Molecule": "CN(C(=O)c1ccc(-c2cc(-c3c[nH]nc3-c3ccccn3)ccn2)cc1)C1CCOCC1 [GW810083]", "Readout units": "%", "Assay result": 0}

----------
The reader will find reported %Inh values listed item by item below.
tested on: RSK1(Kin.Dom.1-N-terminal); construct: gene RPS6KA1; conditions: concentration: 1 μM, replicates: in singlicate; n = 1

{"Compound": "Cl.Cl.Cl.Fc1ccc(-c2ncn(C3CCNCC3)c2-c2ccnc(Nc3ccccc3)n2)cc1 [SB-238039]", "%Inh / %": 0}
{"Compound": "O=C(Nc1n[nH]c2cc(-c3cccc(F)c3)ccc12)C1CC1 [SB-735464]", "%Inh / %": 1}
{"Compound": "O=C(NCCNc1ccnc(Nc2ccc(F)cc2)n1)c1cc2ccccc2s1 [GSK1379874]", "%Inh / %": 26}
{"Compound": "Cc1cccc(-c2nc(-c3ccc(S(C)(=O)=O)cc3)sc2-c2ccncc2)c1", "%Inh / %": 0}
{"Compound": "COc1cc(Nc2nccc(N3CCC(NC(=O)c4cccc(NC(C)=O)c4)C3)n2)cc(OC)c1OC (centres unmarked) [GSK1379754]", "%Inh / %": 58}
{"Compound": "NCC(NC(=O)c1cc(-c2cn[nH]c2)c(-c2ccnc3[nH]ccc23)s1)c1ccccc1.O=C(O)C(F)(F)F.O=C(O)C(F)(F)F (centres unmarked) [GSK1325775]", "%Inh / %": 24}
{"Compound": "CN1c2ccc(NCc3ccc(F)cc3)cc2-c2c(cnn2C)S1(=O)=O", "%Inh / %": 0}
{"Compound": "O=C1Cc2cc(Nc3nc(NCc4cccc(S(=O)(=O)C(F)(F)F)c4)ncc3C(F)(F)F)ccc2N1", "%Inh / %": 41}

----------
Catalogue of %Inh values
tested on: GSK3B; details: concentration: 1 μM, replicates: in singlicate; n = 1
Parameter: %Inh (%)

{"Molecule": "Cl.Oc1cccc(Nc2ccnc3cc(-c4ccncc4)ccc23)c1 [GW494601]", "Experimental target": "GSK3B", "Assay result": 0}
{"Molecule": "COC(=O)Nc1nc2cc(Oc3ccc(NC(=O)Nc4cc(F)ccc4F)cc3)ccc2[nH]1.Cl [GW701424]", "Experimental target": "GSK3B", "Assay result": 11}
{"Molecule": "Cc1nnc(-c2ccc(C)c(-c3ccc(C(=O)Nc4ccc(NS(C)(=O)=O)cc4)cc3)c2)o1 [GW702865]", "Experimental target": "GSK3B", "Assay result": 0}
{"Molecule": "Cc1cccc(-c2nc(-c3ccc(S(C)(=O)=O)cc3)sc2-c2ccncc2)c1", "Experimental target": "GSK3B", "Assay result": 3}
{"Molecule": "Fc1ccc(-c2nn3c(OCC(F)(F)F)cccc3c2-c2ccncc2)cc1 [GW514784]", "Experimental target": "GSK3B", "Assay result": 0}
{"Molecule": "CN(C(=O)c1ccc(-c2cc(-c3c[nH]nc3-c3ccccn3)ccn2)cc1)C1CCOCC1 [GW810083]", "Experimental target": "GSK3B", "Assay result": 4}
{"Molecule": "COc1ccc(Nc2nccc(N3CCC(NC(=O)Nc4cc(C)ccc4C)C3)n2)cc1 (stereo not drawn) [GSK1379741]", "Experimental target": "GSK3B", "Assay result": 18}
{"Molecule": "COc1ccc(COc2cc(-n3cnc4ccccc43)sc2C(N)=O)cc1 [GSK1024304]", "Experimental target": "GSK3B", "Assay result": 0}
{"Molecule": "O=C(NCCCN1CCOCC1)c1cccc(Nc2nccc(Nc3ccc(Oc4ccccc4)cc3)n2)c1 [GW663929]", "Experimental target": "GSK3B", "Assay result": 0}
{"Molecule": "Cc1nnc(-c2ccc3occ(-c4ccc(C(C)O)cc4)c3c2)o1 (stereo not drawn)", "Experimental target": "GSK3B", "Assay result": 19}
{"Molecule": "NS(=O)(=O)c1cccc(-c2ccc3nccc(-c4cccc(S(N)(=O)=O)c4)c3c2)c1 [GW867253]", "Experimental target": "GSK3B", "Assay result": 52}
{"Molecule": "CC(=O)Nc1ccc(COc2ccc(Nc3ccnc4cc(-c5ccccn5)ccc34)cc2)cc1.Cl [GW440148]", "Experimental target": "GSK3B", "Assay result": 12}
{"Molecule": "Cn1ccc2ncnc(Oc3ccc(NC(=O)Nc4ccncc4)c(Cl)c3)c21", "Experimental target": "GSK3B", "Assay result": 0}
{"Molecule": "O=C(NCCNc1ccnc(Nc2ccc(F)cc2)n1)Nc1ccccc1F [GSK1379880]", "Experimental target": "GSK3B", "Assay result": 0}
{"Molecule": "Cc1c2ccc(N(C)c3ccnc(Nc4cccc(S(N)(=O)=O)c4)n3)cc2nn1Cc1ccccc1.Cl.Cl [GW787226]", "Experimental target": "GSK3B", "Assay result": 0}
{"Molecule": "O=C(NOCC1CC1)c1ccc(F)c(F)c1Nc1ccc(I)cc1Cl", "Experimental target": "GSK3B", "Assay result": 0}
{"Molecule": "C[C@@H](Oc1cc(-n2cnc3ccc(NC(=O)NC(C)(C)C)cc32)sc1C(N)=O)c1ccccc1Cl [GSK346294]", "Experimental target": "GSK3B", "Assay result": 21}
{"Molecule": "O=c1cc(N2CCOCC2)nc2n(Cc3cccc(Cl)c3Cl)c(C3CC3)nn12 [GSK2358994]", "Experimental target": "GSK3B", "Assay result": 0}
